study_system: Ubiquitin carboxyl-terminal hydrolase BAP1 (Homo sapiens)
Sequence (Q92560 whole entry): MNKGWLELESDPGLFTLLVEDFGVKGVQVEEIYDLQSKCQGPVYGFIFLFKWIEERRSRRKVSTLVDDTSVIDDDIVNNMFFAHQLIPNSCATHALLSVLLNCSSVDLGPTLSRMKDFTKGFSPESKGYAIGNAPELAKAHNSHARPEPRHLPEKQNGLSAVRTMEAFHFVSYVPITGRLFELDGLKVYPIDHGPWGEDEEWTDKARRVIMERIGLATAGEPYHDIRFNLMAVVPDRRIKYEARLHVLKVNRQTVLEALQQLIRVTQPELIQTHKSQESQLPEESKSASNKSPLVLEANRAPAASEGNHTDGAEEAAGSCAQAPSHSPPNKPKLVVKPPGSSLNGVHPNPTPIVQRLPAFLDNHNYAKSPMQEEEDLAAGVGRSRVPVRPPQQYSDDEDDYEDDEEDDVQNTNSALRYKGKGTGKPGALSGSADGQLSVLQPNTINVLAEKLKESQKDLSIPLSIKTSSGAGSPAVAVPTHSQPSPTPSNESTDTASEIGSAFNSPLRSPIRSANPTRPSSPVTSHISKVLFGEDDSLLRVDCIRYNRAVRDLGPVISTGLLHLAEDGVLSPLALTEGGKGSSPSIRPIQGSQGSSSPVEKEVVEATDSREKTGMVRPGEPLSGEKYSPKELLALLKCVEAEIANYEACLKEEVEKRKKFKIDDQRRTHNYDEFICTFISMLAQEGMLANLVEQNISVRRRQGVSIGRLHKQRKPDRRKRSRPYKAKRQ
pIC50: −log10 of the molar value.
quantity: pIC50

Request: // lookup pIC50 for Cc1cc(Cl)cc(-c2ccnc3cc(CN4C(=O)C5C(C4=O)C5(C)C)sc23)c1O[C@@H]1CCNC[C@@H]1C (stereo partly specified)
Result: < 5.00

----------
pIC50: −log10 of the molar value.
quantity: pIC50

Request: Report pIC50 for Cc1cc(Cl)cc(-c2ccnc3cc(CN4C(=O)C5C(C4=O)C5(C)C)sc23)c1O[C@@H]1CCNC[C@@H]1C (stereo partly specified) tested on Ubiquitin carboxyl-terminal hydrolase 11 (Homo sapiens, UniProt P51784).
Sequence (P51784 whole entry): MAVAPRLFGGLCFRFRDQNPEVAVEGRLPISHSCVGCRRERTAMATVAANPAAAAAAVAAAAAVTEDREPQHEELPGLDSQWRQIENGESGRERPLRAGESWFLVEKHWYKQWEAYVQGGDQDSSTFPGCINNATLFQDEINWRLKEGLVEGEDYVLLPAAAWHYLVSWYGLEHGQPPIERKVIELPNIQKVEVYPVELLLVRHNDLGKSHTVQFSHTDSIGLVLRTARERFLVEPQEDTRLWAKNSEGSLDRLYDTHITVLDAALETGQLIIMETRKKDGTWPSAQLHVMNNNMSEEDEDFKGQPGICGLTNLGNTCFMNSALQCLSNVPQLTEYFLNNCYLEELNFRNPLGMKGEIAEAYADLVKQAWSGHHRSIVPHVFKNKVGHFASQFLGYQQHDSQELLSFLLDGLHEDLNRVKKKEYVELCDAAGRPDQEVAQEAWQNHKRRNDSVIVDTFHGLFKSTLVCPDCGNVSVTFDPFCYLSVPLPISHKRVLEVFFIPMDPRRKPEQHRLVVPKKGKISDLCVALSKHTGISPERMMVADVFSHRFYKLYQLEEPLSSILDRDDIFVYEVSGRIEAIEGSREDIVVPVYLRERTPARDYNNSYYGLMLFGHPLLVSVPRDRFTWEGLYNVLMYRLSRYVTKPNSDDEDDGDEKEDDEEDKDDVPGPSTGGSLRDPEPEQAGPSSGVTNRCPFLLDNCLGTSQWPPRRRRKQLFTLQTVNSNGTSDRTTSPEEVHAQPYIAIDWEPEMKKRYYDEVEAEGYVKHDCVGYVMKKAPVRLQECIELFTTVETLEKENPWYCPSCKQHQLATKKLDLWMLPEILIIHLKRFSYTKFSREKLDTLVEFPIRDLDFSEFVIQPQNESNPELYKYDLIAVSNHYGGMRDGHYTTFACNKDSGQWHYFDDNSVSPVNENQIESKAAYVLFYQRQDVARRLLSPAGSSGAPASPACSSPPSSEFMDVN
Result: < 5.00

Values compiled from ChEMBL document CHEMBL4602719.
